Data provenance is patent US20230212549A1.

- targetSystem: T1, fibroblast activation protein (FAP) on FAP-expressing human WI-38 fibroblasts (human, UniProt Q12884 1-760)
- T1 construct: also called human FAP
- experimentSummary: competitive FACS, WI-38 cells, vs Cy5 tracer m3; A = pIC50 >8.0
Numbered stars: 1 amine (or outer) side, 2 acyl side, 3 side chain; on linkers, the order of the positions; unused ones are H or OH. Bridge positions count the residues as written; N and C are the ends. Square brackets hold non-standard residues; d marks the D form. Primed or numbered codes have the meaning given here. * marks the point of attachment. Ttds″ = 1,13-diamino-4,7,10-trioxatridecan-succinamic acid spacer, O=C(CCC(=O)[*:2])NCCCOCCOCCOCCCN[*:1]; mXylylene = c1cc(C[*:1])cc(C[*:2])c1; Pentanesulfonyl = CCCCCS(=O)(=O)*; Tic = O=C(O)[C@@H]1Cc2ccccc2CN1; Hexanoyl = CCCCCC(=O)*; NH(CH2)5NH2 = NCCCCCN*
pIC50 Category (FACS) reference

Reported pIC50 Category (FACS) for Hexanoyl-CPPTQFCD[Ttds″]-{NH(CH2)5NH2-DOTA′} (linker 1-7 via mXylylene, also called 3BP-3404) [Hex-[Cys(3MeBn)-Pro-Pro-Thr-Gln-Phe-Cys]-Asp-Ttds-Ape-NH-DOTA′] was > 8 pIC50

Sure, the documented pIC50 Category (FACS) for Ac-MCPPTEFCDH[Tic]RD-NH2 (linker 2-8 via mXylylene; SMILES CSCC[C@H](NC(C)=O)C(=O)N[C@H]1CSCc2cccc(c2)CSC[C@@H](C(=O)N[C@@H](CC(=O)O)C(=O)N[C@@H](Cc2c[nH]cn2)C(=O)N2Cc3ccccc3C[C@H]2C(=O)N[C@@H](CCCNC(=N)N)C(=O)N[C@@H](CC(=O)O)C(N)=O)NC(=O)[C@H](Cc2ccccc2)NC(=O)[C@H](CCC(=O)O)NC(=O)[C@H]([C@@H](C)O)NC(=O)[C@@H]2CCCN2C(=O)[C@@H]2CCCN2C1=O, also called 3BP-3189) [Ac-Met-[Cys(3MeBn)-Pro-Pro-Thr-Glu-Phe-Cys]-Asp-His-Tic-Arg-Asp-NH2] is > 8 pIC50

For record Pentanesulfonyl-CPPTQFCD-NH2 (linker 1-7 via mXylylene; SMILES CCCCCS(=O)(=O)N[C@H]1CSCc2cccc(c2)CSC[C@@H](C(=O)N[C@@H](CC(=O)O)C(N)=O)NC(=O)[C@H](Cc2ccccc2)NC(=O)[C@H](CCC(N)=O)NC(=O)[C@H]([C@@H](C)O)NC(=O)[C@@H]2CCCN2C(=O)[C@@H]2CCCN2C1=O, also called 3BP-3514) [Pentyl-SO2-[Cys(3MeBn)-Pro-Pro-Thr-Gln-Phe-Cys]-Asp-NH2] the listed pIC50 Category (FACS) is > 8 pIC50
